- STUDY SYSTEM: T1, histidine-tagged human Siglec-7 (NovoProtein) (human, UniProt Q9Y286 19-353)
- T1 construct: Bought protein; also called recombinant human Siglec-7; recombinant Siglec-7; not shown: histidine tag
- T1 sequence (Q9Y286 19-353 limits assumed): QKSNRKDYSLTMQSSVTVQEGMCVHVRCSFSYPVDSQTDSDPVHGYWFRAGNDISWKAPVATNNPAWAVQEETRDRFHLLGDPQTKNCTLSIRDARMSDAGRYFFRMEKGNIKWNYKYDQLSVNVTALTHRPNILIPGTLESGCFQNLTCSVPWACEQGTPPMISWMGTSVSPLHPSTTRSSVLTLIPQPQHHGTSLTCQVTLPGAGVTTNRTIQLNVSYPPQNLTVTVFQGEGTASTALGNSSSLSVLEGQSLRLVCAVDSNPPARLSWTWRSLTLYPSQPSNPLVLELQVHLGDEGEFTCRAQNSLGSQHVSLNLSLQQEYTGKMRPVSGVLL
- METHOD NOTES: BLI, antibody captured
QUANTITY: koff (s⁻¹)
One number for each entry, in s⁻¹.

Worked cases, answers included:
Ask: Form field: reported koff of S7AB-H8.37 (antibody, V domains shown) VH: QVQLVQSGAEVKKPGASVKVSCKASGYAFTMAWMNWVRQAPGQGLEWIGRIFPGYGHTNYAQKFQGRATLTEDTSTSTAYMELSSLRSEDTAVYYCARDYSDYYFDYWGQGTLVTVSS VL: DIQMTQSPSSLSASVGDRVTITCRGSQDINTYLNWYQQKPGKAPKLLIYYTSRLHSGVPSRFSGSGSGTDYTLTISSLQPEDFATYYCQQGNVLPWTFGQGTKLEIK
Result: 2.5e-05

Ask: What measured koff goes with S7AB-H8.6 (antibody, V domains shown) VH: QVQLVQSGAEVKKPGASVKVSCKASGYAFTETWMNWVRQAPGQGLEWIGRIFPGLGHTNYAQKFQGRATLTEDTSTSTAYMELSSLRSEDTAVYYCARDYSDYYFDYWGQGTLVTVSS VL: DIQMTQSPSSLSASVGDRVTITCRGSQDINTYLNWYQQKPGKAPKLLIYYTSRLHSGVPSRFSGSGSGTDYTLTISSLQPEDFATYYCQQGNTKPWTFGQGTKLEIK ?
Result: 5.71e-05

Below: the item to evaluate.
Ask: Query (binder): S7AB-H8.20 (antibody, V domains shown) VH: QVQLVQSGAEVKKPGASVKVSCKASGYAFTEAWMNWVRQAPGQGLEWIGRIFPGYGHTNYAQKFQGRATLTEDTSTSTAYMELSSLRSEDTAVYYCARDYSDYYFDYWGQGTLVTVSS VL: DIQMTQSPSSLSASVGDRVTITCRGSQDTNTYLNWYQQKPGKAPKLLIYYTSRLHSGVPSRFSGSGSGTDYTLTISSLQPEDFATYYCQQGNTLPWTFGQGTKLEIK ; field requested: koff
Result: 0.000145
